Assay: Aqueous solubility of the compound in DMSO at 500 uM by filter based assay
Type: physicochemical
Parameter measured: solubility kinetic at 500 µM (µM)

Data request: Query (molecule): COC(=O)c1ccc(OCc2oc(-c3ccccc3OC)nc2C)cc1 ; field requested: solubility kinetic at 500 µM
Data returned: 62.6

Data request: Bench note: what solubility kinetic at 500 µM did COC(=O)Cc1ccc(OCc2oc(-c3cccc(OC)c3)nc2C)cc1 show?
Data returned: 45.3

Data request: Value lookup for solubility kinetic at 500 µM; key = COc1ccccc1-c1nc(C)c(COc2ccc(CC(=O)O)cc2)o1
Data returned: 436

Data request: Bench note: what solubility kinetic at 500 µM did COc1ccccc1-c1nc(C)c(COc2cccc(C(=O)O)c2)o1 show?
Data returned: 423

Data request: Would you mind telling me what solubility kinetic at 500 µM value was observed for COc1cccc(-c2nc(C)c(COc3cccc(C(=O)O)c3)o2)c1 ?
Data returned: 498

Data request: Endpoint output: solubility kinetic at 500 µM of COc1cccc(-c2nc(C)c(COc3ccccc3C(=O)O)o2)c1 . Value?
Data returned: 264

[I] COc1cccc(-c2nc(C)c(COc3ccc(CC(=O)O)cc3)o2)c1
[II] COC(=O)c1ccccc1OCc1oc(-c2ccccc2OC)nc1C
[III] COC(=O)c1cccc(OCc2oc(-c3ccccc3OC)nc2C)c1
Data request: hey, can you rank those molecules up there by solubility kinetic at 500 µM? biggest number first please The labels, placed in the requested order, form the answer.
Data returned: I, II, III
